We begin with a simple list: items and their reported total protein half-life in vivo.
# protocolText: total protein half-life in vivo (active degradation + dilution); higher = more stable protein
# experimentalSetup: wild type E. coli NCM3722; growth: C-lim chemostat; doubling time 6 h
Your answer should be a plain number; it is taken to be in h.

MCTTCGCGEGNLYIEGDEHNPHSAFRSAPFAPAARPKMKITGIKAPEFTPSQTEEGDLHYGHGEAGTHAPGMSQRRMLEVEIDVLDKNNRLAERNRARFAARKQLVLNLVSSPGSGKTTLLTETLMRLKDSVPCAVIEGDQQTVNDAARIRATGTPAIQVNTGKGCHLDAQMIADAAPRLPLDDNGILFIENVGNLVCPASFDLGEKHKVAVLSVTEGEDKPLKYPHMFAAASLMLLNKVDLLPYLNFDVEKCIACAREVNPEIEIILISATSGEGMDQWLNWLETQRCA [P0AAN3]	4.19

Notebook: MLILISPAKTLDYQSPLTTTRYTLPELLDNSQQLIHEARKLTPPQISTLMRISDKLAGINAARFHDWQPDFTPANARQAILAFKGDVYTGLQAETFSEDDFDFAQQHLRMLSGLYGVLRPLDLMQPYRLEMGIRLENARGKDLYQFWGDIITNKLNEALAAQGDNVVINLASDEYFKSVKPKKLNAEIIKPVFLDEKNGKFKIISFYAKKARGLMSRFIIENRLTKPEQLTGFNSEGYFFDEDSSSNGELVFKRYEQR [P0A8I3] , total protein half-life in vivo read as 3.57

Notebook: MNYQNDDLRIKEIKELLPPVALLEKFPATENAANTVAHARKAIHKILKGNDDRLLVVIGPCSIHDPVAAKEYATRLLALREELKDELEIVMRVYFEKPRTTVGWKGLINDPHMDNSFQINDGLRIARKLLLDINDSGLPAAGEFLDMITPQYLADLMSWGAIGARTTESQVHRELASGLSCPVGFKNGTDGTIKVAIDAINAAGAPHCFLSVTKWGHSAIVNTSGNGDCHIILRGGKEPNYSAKHVAEVKEGLNKAGLPAQVMIDFSHANSSKQFKKQMDVCADVCQQIAGGEKAIIGVMVESHLVEGNQSLESGEPLAYGKSITDACIGWEDTDALLRQLANAVKARRG [P0AB91] , total protein half-life in vivo read as 5.81

Notebook: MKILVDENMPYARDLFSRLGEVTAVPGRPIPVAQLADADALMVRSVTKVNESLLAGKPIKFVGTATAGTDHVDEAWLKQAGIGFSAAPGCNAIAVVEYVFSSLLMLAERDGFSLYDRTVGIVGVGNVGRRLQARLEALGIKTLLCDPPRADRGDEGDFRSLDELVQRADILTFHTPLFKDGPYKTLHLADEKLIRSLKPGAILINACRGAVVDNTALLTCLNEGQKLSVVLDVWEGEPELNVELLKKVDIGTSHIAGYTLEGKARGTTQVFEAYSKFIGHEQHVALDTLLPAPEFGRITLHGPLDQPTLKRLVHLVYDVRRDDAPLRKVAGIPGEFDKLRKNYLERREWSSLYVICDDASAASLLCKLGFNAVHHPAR , total protein half-life in vivo read as 5.58

Notebook: MKTAYIAKQRQISFVKSHFSRQLEERLGLIEVQAPILSRVGDGTQDNLSGCEKAVQVKVKALPDAQFEVVHSLAKWKRQTLGQHDFSAGEGLYTHMKALRPDEDRLSPLHSVYVDQWDWERVMGDGERQFSTLKSTVEAIWAGIKATEAAVSEEFGLAPFLPDQIHFVHSQELLSRYPDLDAKGRERAIAKDLGAVFLVGIGGKLSDGHRHDVRAPDYDDWSTPSELGHAGLNGDILVWNPVLEDAFELSSMGIRVDADTLKHQLALTGDEDRLELEWHQALLRGEMPQTIGGGIGQSRLTMLLLQLPHIGQVQCGVWPAAVRESVPSLL , total protein half-life in vivo read as 2.9

* * *

# protocolText: total protein half-life in vivo (active degradation + dilution); higher = more stable protein
# experimentalSetup: wild type E. coli NCM3722; growth: P-lim chemostat; doubling time 12 h
We begin with a simple list: items and their reported total protein half-life in vivo.
Your answer should be a plain number; it is taken to be in h.

Take a look at these entries with their results.
MKPGCTLFFLLCSALTVTTEAHAQTPDTATTAPYLLAGAPTFDLSISQFREDFNSQNPSLPLNEFRAIDSSPDKANLTRAASKINENLYASTALERGTLKIKSIQMTWLPIQGPEQKAAKAKAQEYMAAVIRTLTPLMTKTQSQKKLQSLLTAGKNKRYYTETEGALRYVVADNGEKGLTFAVEPIKLALSESLEGLNK	8.75
MMMGEVQSLPSAGLHPALQDALTLALAARPQEKAPGRYELQGDNIFMNVMTFNTQSPVEKKAELHEQYIDIQLLLNGEERILFGMAGTARQCEEFHHEDDYQLCSTIDNEQAIILKPGMFAVFMPGEPHKPGCVVGEPGEIKKVVVKVKADLMA	10.3

Consider the additional sequence presented here.
Notebook: MSQNLDATAINQIHALISAQGVNEIISKIGADAVALPENFRIHDLEKFNLNRFRFRGALSTASIDDFTRYSKDLADEGTRCFIDADNMRAVSVLNLGTIDEPGHADNTATLKLKKTAPFSALLSVNGERNSQKSLAEWIEDWADYLVGFDANGDAIQATKAAAAIRKITIEANQTADFEDNDFSGKRSLMESVEAKTKDIMPVAFEFKCVPFEGLKERPFKLRLSIITGDRPVLVLRIIQLEAVQEDMANEFRDLLVEKFKDSKVETFIGTFTA , total protein half-life in vivo read as 15.2

* * *

We begin with a simple list: items and their reported total protein half-life in vivo.
# protocolText: total protein half-life in vivo (active degradation + dilution); higher = more stable protein
# experimentalSetup: E. coli NCM3722 delta-hslV; growth: N-lim chemostat; doubling time 6 h
Your answer should be a plain number; it is taken to be in h.

Take a look at these entries with their results.
MSHPALTQLRALRYCKEIPALDPQLLDWLLLEDSMTKRFEQQGKTVSVTMIREGFVEQNEIPEELPLLPKESRYWLREILLCADGEPWLAGRTVVPVSTLSGPELALQKLGKTPLGRYLFTSSTLTRDFIEIGRDAGLWGRRSRLRLSGKPLLLTELFLPASPLY	3.04
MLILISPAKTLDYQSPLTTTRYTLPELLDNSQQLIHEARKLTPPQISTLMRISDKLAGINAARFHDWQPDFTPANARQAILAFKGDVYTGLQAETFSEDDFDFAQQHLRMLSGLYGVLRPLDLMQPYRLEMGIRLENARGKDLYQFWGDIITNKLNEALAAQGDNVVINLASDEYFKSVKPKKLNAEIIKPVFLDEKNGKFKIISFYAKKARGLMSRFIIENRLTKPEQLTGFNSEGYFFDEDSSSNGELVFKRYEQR [P0A8I3]	2.67

Consider the additional sequence presented here.
Notebook: MIISAASDYRAAAQRILPPFLFHYMDGGAYSEYTLRRNVEDLSEVALRQRILKNMSDLSLETTLFNEKLSMPVALAPVGLCGMYARRGEVQAAKAADAHGIPFTLSTVSVCPIEEVAPAIKRPMWFQLYVLRDRGFMRNALERAKAAGCSTLVFTVDMPTPGARYRDAHSGMSGPNAAMRRYLQAVTHPQWAWDVGLNGRPHDLGNISAYLGKPTGLEDYIGWLGNNFDPSISWKDLEWIRDFWDGPMVIKGILDPEDARDAVRFGADGIVVSNHGGRQLDGVLSSARALPAIADAVKGDIAILADSGIRNGLDVVRMIALGADTVLLGRAFLYALATAGQAGVANLLNLIEKEMKVAMTLTGAKSISEITQDSLVQGLGKELPAALAPMAKGNAA , total protein half-life in vivo read as 4

* * *

We begin with a simple list: items and their reported total protein half-life in vivo.
# protocolText: total protein half-life in vivo (active degradation + dilution); higher = more stable protein
# experimentalSetup: wild type E. coli NCM3722; growth: N-lim chemostat; doubling time 12 h
Your answer should be a plain number; it is taken to be in h.

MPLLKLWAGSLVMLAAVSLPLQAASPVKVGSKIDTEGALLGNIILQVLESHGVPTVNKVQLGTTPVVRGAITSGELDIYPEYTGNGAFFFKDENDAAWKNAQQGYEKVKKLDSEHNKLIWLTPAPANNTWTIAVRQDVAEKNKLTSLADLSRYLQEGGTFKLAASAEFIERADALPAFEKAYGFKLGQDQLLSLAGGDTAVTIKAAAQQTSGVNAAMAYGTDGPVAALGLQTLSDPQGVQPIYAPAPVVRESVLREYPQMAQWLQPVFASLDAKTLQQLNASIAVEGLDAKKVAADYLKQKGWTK	12
MFDFASYHRAATLADAINLLADNPQAKLLAGGTDVLIQLHHHNDRYRHIVDIHNLAELRGITLAEDGSLRIGSATTFTQLIEDPITQRHLPALCAAATSIAGPQIRNVATYGGNICNGATSADSATPTLIYDAKLEIHSPRGVRFVPINGFHTGPGKVSLEHDEILVAFHFPPQPKEHAGSAHFKYAMRDAMDISTIGCAAHCRLDNGNFSELRLAFGVAAPTPIRCQHAEQTAQNAPLNLQTLEAISESVLQDVAPRSSWRASKEFRLHLIQTMTKKVISEAVAAAGGKLQ	4

Notebook: MANVEIYTKETCPYCHRAKALLSSKGVSFQELPIDGNAAKREEMIKRSGRTTVPQIFIDAQHIGGCDDLYALDARGGLDPLLK [P0AC62] , total protein half-life in vivo read as 9.44
